B1: CLuc-FGF14 [human] / CD4-Nav1.6 C-tail-NLuc [human] (parent)
chain 1: MVKPVPLFRRTDFKLLLCNHKDLFFLRVSKLLDCFSPKSMWFLWNIFSKGTHMLQCLCGKSLKKNKNPTDPQLKGIVTRLYCRQGYYLQMHPDGALDGTKDDSTNSTLFNLIPVGLRVVAIQGVKTGLYIAMNGEGYLYPSELFTPECKFKESVFENYYVIYSSMLYRQQESGRAWFLGLNKEGQAMKGNRVKKTKPAAHFLPKPLEVAMYREPSLHDVGETVPKPGVTPSKSTSASAIMNGGKPVNKSKTT
chain 2: IVVNMYIAIILENFSVATEESADPLSEDDFETFYEIWEKFDPDATQFIEYCKLADFADALEHPLRVPKPNTIELIAMDLPMVSGDRIHCLDILFAFTKRVLGDSGELDILRQQMEERFVASNPSKVSYEPITTTLRRKQEEVSAVVLQRAYRGHLARRGFICKKTTSNKLENGGTHREKKESTPSTASLPSYDSVTKPEKEKQQRAEEGRRERAKRQKEVRESKC

# Variants of: B1
# Assay Name: split-luciferase complementation assay (LCA) in HEK293 cells
# Test Parameters: with CD4-Nav1.6 C-tail-NLuc [human]; PLEV peptide 50 µM present; DMSO vehicle control of the same pair = 100; read off a plot
Metric: screen value (% Luminescence (RLU))

Mutant Label	Metric	Value
chain 1 Y158N V160N	screen value (% Luminescence (RLU))	72
chain 1 Y158A	screen value (% Luminescence (RLU))	110
chain 1 Y158A V160A	screen value (% Luminescence (RLU))	110
chain 1 V160A	screen value (% Luminescence (RLU))	94
